Origin of the recorded values: patent US20140213531A1

target: Thrombin, from Human Plasma, high activity (human, UniProt P00734 328-622); assay: enzyme inhibition, pNA substrate

BINDER	U	% inhibition at 100 µM
XCTASIPPQCF (HELM PEPTIDE1{[Nle].C.T.A.S.I.P.P.Q.C.F.[dP].P}$PEPTIDE1,PEPTIDE1,2:R3-10:R3|PEPTIDE1,PEPTIDE1,1:R1-13:R2$$$V2.0; SMILES CCCC[C@@H]1NC(=O)[C@@H]2CCCN2C(=O)[C@H]2CCCN2C(=O)[C@H](Cc2ccccc2)NC(=O)[C@@H]2CSSC[C@H](NC1=O)C(=O)N[C@@H]([C@@H](C)O)C(=O)N[C@@H](C)C(=O)N[C@@H](CO)C(=O)N[C@@H]([C@@H](C)CC)C(=O)N1CCC[C@H]1C(=O)N1CCC[C@H]1C(=O)N[C@@H](CCC(N)=O)C(=O)N2, also called Ex. 90) [Example 90]	%	0
XCTASIPPQCY (HELM PEPTIDE1{[Nle].C.T.A.S.I.P.P.Q.C.Y.[dP].V}$PEPTIDE1,PEPTIDE1,2:R3-10:R3|PEPTIDE1,PEPTIDE1,1:R1-13:R2$$$V2.0; SMILES CCCC[C@@H]1NC(=O)[C@H](C(C)C)NC(=O)[C@H]2CCCN2C(=O)[C@H](Cc2ccc(O)cc2)NC(=O)[C@@H]2CSSC[C@H](NC1=O)C(=O)N[C@@H]([C@@H](C)O)C(=O)N[C@@H](C)C(=O)N[C@@H](CO)C(=O)N[C@@H]([C@@H](C)CC)C(=O)N1CCC[C@H]1C(=O)N1CCC[C@H]1C(=O)N[C@@H](CCC(N)=O)C(=O)N2) [Example 125]	%	0
